Recorded measurements of t1/2, one per entry
- TESTED_ON: T1, cyno IL-33 N-His (cynomolgus monkey)
- T1 chain: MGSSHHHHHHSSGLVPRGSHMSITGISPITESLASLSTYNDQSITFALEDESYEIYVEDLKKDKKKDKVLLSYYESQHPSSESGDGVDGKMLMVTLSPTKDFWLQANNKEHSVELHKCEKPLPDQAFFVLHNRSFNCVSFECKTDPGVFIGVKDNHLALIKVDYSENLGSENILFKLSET
- MEASUREMENT_DESCRIPTION: SPR Biacore T200, 25 C
- Description: The binding kinetics of the anti-IL-33 antibody 10C12.38.H6.87Y.58I IgG4 and each anti-IL-33 antibody listed in Table 5 (RG1-RG20) to IL-33 were measured using surface plasmon resonance (SPR) on a BIACORE® T200 instrument (GE Healthcare). […] Antibody binding was measured to human IL-33 (R&D systems, #3625-IL-010/CF) and cyno IL-33 N-His (SEQ ID NO: 317) (Genentech, Inc.). […] After injection, disassociation of the ligand from the antibody was monitored for 10 min in running buffer. […]

BINDER	t1/2 (min)
H4H9664P (antibody, V domains shown) VH: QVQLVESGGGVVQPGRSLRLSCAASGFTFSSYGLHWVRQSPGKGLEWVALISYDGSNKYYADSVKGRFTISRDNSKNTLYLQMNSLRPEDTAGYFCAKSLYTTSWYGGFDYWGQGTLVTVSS VL: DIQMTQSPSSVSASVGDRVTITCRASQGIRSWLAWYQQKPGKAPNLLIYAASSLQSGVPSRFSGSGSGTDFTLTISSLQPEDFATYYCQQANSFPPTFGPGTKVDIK	21
H4H9670P (antibody, V domains shown) VH: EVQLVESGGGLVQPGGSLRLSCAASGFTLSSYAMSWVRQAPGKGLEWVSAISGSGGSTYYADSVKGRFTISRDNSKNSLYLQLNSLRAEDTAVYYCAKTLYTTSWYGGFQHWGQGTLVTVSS VL: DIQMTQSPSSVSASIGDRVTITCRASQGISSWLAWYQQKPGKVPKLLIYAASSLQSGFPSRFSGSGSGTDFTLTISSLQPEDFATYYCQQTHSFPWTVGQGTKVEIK	21
